assay: in vitro; settings: rat, gh3-tre-luc cells, AC50 (uM) modified / 1000
For each of the compounds below, state its CC50 at 24 h.

Below, 5 compounds whose answers are already recorded.
Compound	CC50 at 24 h
C=C(C)C(=O)OCc1ccccc1 [Benzyl methacrylate]	> 90 µM
COC(=O)CCCCCCCC(=O)OC [Dimethyl nonanedioate]	> 90 µM
C=C1/C(=C\C=C2/CCC[C@]3(C)[C@@H]([C@H](C)CCCC(C)C)CC[C@@H]23)C[C@@H](O)C[C@@H]1O	14.8 µM
CN[C@H]1C[C@@H](N)[C@H](O)[C@@H](O[C@@H]2O[C@H](CO)[C@H](O)[C@@H]3OC4(O[C@H]23)O[C@H]([C@@H](N)CO)[C@H](O)[C@H](O)[C@H]4O)[C@@H]1O (stereo partly drawn)	> 50 µM
NC(=O)CC[C@@H](N)C(=O)O	> 50 µM

Each compound below has a recorded value; state its CC50 at 24 h.
1. Cc1ccc(-c2ccccc2)cc1
2. CC(C)(N)CO
3. O=C(O)c1ccccc1-c1ccc(C(F)(F)F)cc1
4. O=Cc1ccc([N+](=O)[O-])cc1
5. COCCOC(=O)C1=C(C)NC(C)=C(C(=O)OC/C=C/c2ccccc2)C1c1cccc([N+](=O)[O-])c1 (stereo not drawn)
6. CC(C)=CCOC(=O)c1ccccc1 [3-Methyl-2-butenyl benzoate]

OUTPUT:
1. > 90 µM
2. > 90 µM
3. > 50 µM
4. > 90 µM
5. 12.4 µM
6. > 90 µM

###

assay: in vitro; conditions: rat, gh3-tre-luc cells, AC50 (uM) modified / 1000
For each of the compounds below, state its CC50 at 24 h.

Below, 3 compounds whose answers are already recorded.
Compound	CC50 at 24 h
Cc1ccccc1N=O [2-Nitrosotoluene]	> 90 µM
O=c1cc(-c2ccc(O)cc2)oc2cc(O)cc(O)c12 [Apigenin]	42.3 µM
CCCCCCCCCCCCCCCCCCCCCCO [1-Docosanol]	> 50 µM

Each compound below has a recorded value; state its CC50 at 24 h.
1. O=C(O)C1(C(=O)Nc2ccc(Cl)cc2Cl)CC1 [Cyclanilide]
2. [O-][n+]1ccccc1SSc1cccc[n+]1[O-] [Dipyrithione]
3. Oc1ccc2c(c1)-c1ccccc1C2 [3-Hydroxyfluorene]

OUTPUT:
1: > 90 µM; 2: 0.205 µM; 3: > 90 µM

###

For each of the compounds below, state its CC50 at 24 h.
assay: in vitro; settings: rat, gh3-tre-luc cells, AC50 (uM) modified / 1000
Structures can show the parent of a compound that is named as a salt.

Compound	CC50 at 24 h
CN(C)CC[C@@H](c1ccc(Cl)cc1)c1ccccn1 [Dexchlorpheniramine hydrochloride]	24.8 µM
CC(C)(O)C(=O)Nc1ccc([N+](=O)[O-])c(C(F)(F)F)c1 [Hydroxyflutamide]	> 90 µM
CC(C(=O)O)c1ccc(C(=O)c2ccccc2)s1 (stereo not shown)	> 20 µM
O=[N+]([O-])c1ccccc1-c1ccccc1	> 90 µM
Nc1c(/N=N/c2ccc(-c3ccc(/N=N/c4cc(S(=O)(=O)O)c5ccccc5c4N)cc3)cc2)cc(S(=O)(=O)O)c2ccccc12	27 µM
O=c1[nH]c(=O)c2c[nH]nc2[nH]1	> 90 µM
CCC1CO1 (stereo not shown)	> 90 µM
CC(=O)CCc1ccc(OC(C)=O)cc1	> 90 µM

Each compound below has a recorded value; state its CC50 at 24 h.
1. CCCC(C)C
2. O=C(O)[C@@H](S)[C@H](S)C(=O)O

OUTPUT:
1: > 90 µM; 2: 22.8 µM

All figures here come from paper PMC6792352.
